The values you see were collected from patent US7932277B2.

- assayed.system: NS3/NS4A-2 (full-length HCV NS3 protease complexed with NS4A-2) (Hepatitis C virus genotype 1a, UniProt P27958)
- Construct: Recombinant E. coli or Baculovirus full-length NS3; host or cells: E. coli or baculovirus (insect cells)
- Sequence (P27958 1027-1657, one chain of several): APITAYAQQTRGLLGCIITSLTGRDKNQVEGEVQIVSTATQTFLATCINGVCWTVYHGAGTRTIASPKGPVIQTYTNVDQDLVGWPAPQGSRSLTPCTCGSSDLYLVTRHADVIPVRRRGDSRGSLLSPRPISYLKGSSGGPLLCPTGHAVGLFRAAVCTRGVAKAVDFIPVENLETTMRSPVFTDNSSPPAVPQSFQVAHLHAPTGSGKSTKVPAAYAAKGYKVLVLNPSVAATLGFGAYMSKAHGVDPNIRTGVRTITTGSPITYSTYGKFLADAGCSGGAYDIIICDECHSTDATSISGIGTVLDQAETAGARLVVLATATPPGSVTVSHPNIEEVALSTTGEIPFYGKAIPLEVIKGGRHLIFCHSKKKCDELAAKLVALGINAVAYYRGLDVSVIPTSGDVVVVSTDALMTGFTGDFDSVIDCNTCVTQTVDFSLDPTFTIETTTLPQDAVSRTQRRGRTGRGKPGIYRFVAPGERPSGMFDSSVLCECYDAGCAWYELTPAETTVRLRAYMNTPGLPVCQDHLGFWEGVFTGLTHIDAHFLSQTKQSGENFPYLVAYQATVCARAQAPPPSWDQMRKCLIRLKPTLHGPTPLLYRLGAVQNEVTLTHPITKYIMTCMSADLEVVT
- assay.summary: NS3 inhibition assay (NS3-NS4 protease assay)
- Assay type: biochemical
- run.conditions: recombinant full-length NS3/NS4A-2, RETS1 substrate, kinetic fluorescence read; read-out: NS3-NS4 IC50
pIC50: −log10 of the molar value.
result.type: pIC50

Some molecules with recorded pIC50:
1. C=C[C@@H]1C[C@]1(NC(=O)[C@H]1Cc2cc(Oc3cccc(Cl)c3)ccc2CN1C(=O)[C@@H](Nc1ccc(F)cc1)C(C)(C)C)C(=O)NS(=O)(=O)C1CC1 [Compound 12]	6.00 to 7.00
2. CC[C@@H]1C[C@]1(NC(=O)[C@@H]1C[C@@H](OC(=O)N2Cc3cccc(Cl)c3C2)CN1C(=O)[C@@H](Nc1cccc(N2CCOCC2)c1)C(C)(C)C)C(=O)NS(=O)(=O)C1CC1 [Compound 75]	> 7.00
3. C=C[C@@H]1C[C@]1(NC(=O)[C@@H]1C[C@@H](OC(=O)N2Cc3cccc(F)c3C2)CN1C(=O)[C@@H](Nc1ccc(Br)cc1)C(C)C)C(=O)NS(=O)(=O)C1CC1 [Compound 36]	> 7.00
4. CC[C@@H]1C[C@]1(NC(=O)[C@@H]1C[C@@H](OC(=O)N2Cc3cccc(F)c3C2)CN1C(=O)[C@@H](Nc1cccc(C(F)(F)F)c1)C(C)(C)C)C(=O)NS(=O)(=O)C1CC1 [Compound 56]	> 7.00

Note pIC50 for the molecule shown: CC[C@@H]1C[C@]1(NC(=O)[C@@H]1C[C@@H](OC(=O)N2Cc3cccc(F)c3C2)CN1C(=O)[C@@H](Nc1cccc(Cl)c1)C(C)C)C(=O)NS(=O)(=O)C1CC1 [Compound 50]
> 7.00

###

- assayed.system: NS3/NS4A-2 (full-length HCV NS3 protease complexed with NS4A-2) (Hepatitis C virus genotype 1a)
- Construct: Recombinant E. coli or Baculovirus full-length NS3; host or cells: E. coli or baculovirus (insect cells)
- assay.summary: NS3 inhibition assay (NS3-NS4 protease assay)
- Assay type: biochemical
- run.conditions: recombinant full-length NS3/NS4A-2, RETS1 substrate, kinetic fluorescence read; read-out: NS3-NS4 IC50
pIC50: −log10 of the molar value.
The compounds listed here are annotated with their pIC50.

1. CC[C@@H]1C[C@]1(NC(=O)[C@@H]1C[C@@H](OC(=O)N2Cc3cccc(F)c3C2)CN1C(=O)[C@@H](Nc1cccc(C#N)c1)C(C)C)C(=O)NS(=O)(=O)C1CC1 [Compound 51]	> 7.00
2. C=CCCCCC[C@H](Nc1ccc(F)cc1)C(=O)N1C[C@H](OC(=O)N2Cc3cccc(F)c3C2)C[C@H]1C(=O)N[C@]1(C(=O)NS(=O)(=O)C2CC2)C[C@H]1C=C [Compound 35]	> 7.00

Please find the next compound below.
Note pIC50 for the compound shown: CC[C@@H]1C[C@]1(NC(=O)[C@@H]1C[C@@H](OC(=O)N2Cc3cccc(F)c3C2)CN1C(=O)[C@@H](Nc1cncc(C(F)(F)F)c1)C(C)(C)C)C(=O)NS(=O)(=O)C1CC1 [Compound 57]
> 7.00
